- System: RPMI-8226
- methodDescription: NCI tumour cell line growth inhibition, 48 h
Active and inactive are the calls of the source. Cut-off read from the data, not from the text of the source: active = GI50 up to about 1.1 µM and inactive = higher.
Reported GI50 values for a set of compounds
outcomeMeasure: GI50

- compound: "C[C@@H](NC1CCCC[C@H]1O)c1ccccc1 (some centres undefined)"
  valueMeasured: "> 100 µM (inactive)"
- compound: "C=C1C(=O)O[C@@H]2O[C@@]3(C)CC[C@H]4[C@H](C)CC[C@@H]1[C@@]24O3"
  valueMeasured: "6.37 µM (inactive)"
- compound: "O=CNNC(=O)Nc1cccc2ccccc12"
  valueMeasured: "> 100 µM (inactive)"
- compound: "O=C(CC(C(=O)c1ccoc1)c1ccco1)c1ccco1 (centres undefined)"
  valueMeasured: "> 100 µM (inactive)"
- compound: "CC1(C)C(=O)N(O)C(C)(C)N1N=O"
  valueMeasured: "1.89 µM (inactive)"
- compound: "O=C(NNC(=S)Nc1ccccc1)c1nsc2ccccc12"
  valueMeasured: "16 µM (inactive)"
- compound: "CC/C(=N/O)c1ccc2[nH]c3c(C)cc([N+](=O)[O-])c(C)c3c2c1"
  valueMeasured: "52.7 µM (inactive)"
- compound: "O=C(CN1C(=O)c2ccccc2C1=O)C(O)CN1C(=O)c2ccccc2C1=O (centres undefined)"
  valueMeasured: "> 100 µM (inactive)"
- compound: "Fc1ccc(C2SCc3nc4ccccc4n32)cc1F (centres undefined)"
  valueMeasured: "13.3 µM (inactive)"
